Assignment: determine reported inhibition for the given compounds.
# EXPERIMENTAL_SYSTEM: Thyroxine 5-deiodinase (Homo sapiens)
# TEST: Inhibition of Human Placenta Inner-Ring Iodothyronine 5-deiodinase at the compound concentration of 5 mM
Give bare numbers, in %.

These recorded examples may help you get a feel for the data.
CCc1ccc(Nc2cc(=O)[nH]c(=S)n2C)cc1 = 2
CCCCc1ccc(Nc2cc(O)nc(S)n2)cc1 = 96

For every listed record, write down its inhibition.
1. CCc1ccc(Nc2cc(=O)n(C)c(=S)[nH]2)cc1
2. CCCc1cc(=O)[nH]c(=S)[nH]1
3. CCc1ccc(Nc2cc(O)nc(S)n2)cc1
4. Cn1c(=S)[nH]c(N)c(Cc2ccccc2)c1=O

Result:
1: 0; 2: 29; 3: 85; 4: 79

For every listed record, write down its inhibition.
1. Oc1cc(Nc2ccccc2)nc(S)n1
2. CCCCc1ccc(Nc2cc(=O)n(C)c(=S)[nH]2)cc1
3. Nc1cc(O)nc(S)n1

Result:
31
20
16
